Data origin: patent US11339130B1

Molecular target: Human Calpain 2/NS1 (Homo sapiens)
Sequence (P17655 whole entry): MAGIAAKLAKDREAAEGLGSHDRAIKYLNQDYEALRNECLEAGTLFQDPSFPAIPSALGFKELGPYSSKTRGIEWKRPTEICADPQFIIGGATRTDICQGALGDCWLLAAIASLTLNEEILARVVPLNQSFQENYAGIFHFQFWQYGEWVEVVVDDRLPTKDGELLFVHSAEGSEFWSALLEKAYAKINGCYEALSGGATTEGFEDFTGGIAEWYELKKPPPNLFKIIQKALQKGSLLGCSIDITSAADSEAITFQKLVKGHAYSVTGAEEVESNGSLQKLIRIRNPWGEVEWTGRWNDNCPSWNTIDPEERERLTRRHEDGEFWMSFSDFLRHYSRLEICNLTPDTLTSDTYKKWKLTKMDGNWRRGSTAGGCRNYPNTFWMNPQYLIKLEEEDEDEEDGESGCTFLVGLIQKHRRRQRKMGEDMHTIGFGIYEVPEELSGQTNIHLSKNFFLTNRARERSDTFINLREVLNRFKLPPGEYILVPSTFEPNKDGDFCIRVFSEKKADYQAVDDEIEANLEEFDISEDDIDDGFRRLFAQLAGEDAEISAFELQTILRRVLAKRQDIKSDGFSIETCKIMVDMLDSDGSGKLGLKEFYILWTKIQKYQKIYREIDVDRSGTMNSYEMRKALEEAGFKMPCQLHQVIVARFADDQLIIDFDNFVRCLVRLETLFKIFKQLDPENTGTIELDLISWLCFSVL
Sequence (P04632 whole entry partner): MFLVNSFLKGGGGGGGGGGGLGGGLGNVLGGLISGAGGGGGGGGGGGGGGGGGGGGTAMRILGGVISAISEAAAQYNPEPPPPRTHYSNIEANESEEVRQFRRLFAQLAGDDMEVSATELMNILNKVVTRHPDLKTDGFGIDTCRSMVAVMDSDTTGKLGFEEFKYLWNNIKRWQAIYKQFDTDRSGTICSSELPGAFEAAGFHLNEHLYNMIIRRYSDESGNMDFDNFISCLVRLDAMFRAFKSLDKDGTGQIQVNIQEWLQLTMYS
Assay: Calpain inhibition continuous fluorescence (FRET) assay, Human Calpain 2/NS1
Assay type: biochemical
Conditions: Column B; read-out: Human Calpain 2/NS1 IC50
Consider the following compounds and their measured IC50 readings.

See these solved cases before continuing.
{"columns": ["compound", "system tested", "IC50"],
 "data": [
  ["Cc1nc(-c2ccc(F)cc2)c(C(=O)N[C@@H](Cc2ccccc2)C(=O)C(N)=O)o1 [Compound 248]", "Human Calpain 2/NS1 (Homo sapiens)", "< 3 µM"],
  ["Cn1nc(C(=O)N[C@@H](Cc2ccccc2)C(=O)C(N)=O)c(-c2ccccc2)n1 [Compound 259]", "Human Calpain 2/NS1 (Homo sapiens)", "< 3 µM"],
  ["NC(=O)C(=O)[C@H](Cc1ccccc1)NC(=O)c1c[nH]nc1-c1ccccc1 [Compound 30]", "Human Calpain 2/NS1 (Homo sapiens)", "< 3 µM"],
  ["Cn1cc(C(=O)N[C@@H](Cc2ccccc2)C(=O)C(N)=O)c(-c2ccc(F)cc2)n1 [Compound 179]", "Human Calpain 2/NS1 (Homo sapiens)", "< 3 µM"],
  ["Cc1cc(C(=O)N[C@@H](Cc2ccccc2)C(=O)C(N)=O)n(-c2ccncc2)n1 [Compound 209]", "Human Calpain 2/NS1 (Homo sapiens)", "< 3 µM"]
]}

Please turn your attention to the following entry.
Using the record for Cn1cc(C(=O)N[C@@H](Cc2ccccc2)C(=O)C(N)=O)c(-c2ccccc2F)n1 [Compound 181] , report its IC50.
< 3 µM
